Just for reference, ChEMBL document CHEMBL5252509 is where these values come from.

Biological target: Serine/threonine-protein kinase Nek1 (Homo sapiens)
Sequence (Q96PY6 whole entry): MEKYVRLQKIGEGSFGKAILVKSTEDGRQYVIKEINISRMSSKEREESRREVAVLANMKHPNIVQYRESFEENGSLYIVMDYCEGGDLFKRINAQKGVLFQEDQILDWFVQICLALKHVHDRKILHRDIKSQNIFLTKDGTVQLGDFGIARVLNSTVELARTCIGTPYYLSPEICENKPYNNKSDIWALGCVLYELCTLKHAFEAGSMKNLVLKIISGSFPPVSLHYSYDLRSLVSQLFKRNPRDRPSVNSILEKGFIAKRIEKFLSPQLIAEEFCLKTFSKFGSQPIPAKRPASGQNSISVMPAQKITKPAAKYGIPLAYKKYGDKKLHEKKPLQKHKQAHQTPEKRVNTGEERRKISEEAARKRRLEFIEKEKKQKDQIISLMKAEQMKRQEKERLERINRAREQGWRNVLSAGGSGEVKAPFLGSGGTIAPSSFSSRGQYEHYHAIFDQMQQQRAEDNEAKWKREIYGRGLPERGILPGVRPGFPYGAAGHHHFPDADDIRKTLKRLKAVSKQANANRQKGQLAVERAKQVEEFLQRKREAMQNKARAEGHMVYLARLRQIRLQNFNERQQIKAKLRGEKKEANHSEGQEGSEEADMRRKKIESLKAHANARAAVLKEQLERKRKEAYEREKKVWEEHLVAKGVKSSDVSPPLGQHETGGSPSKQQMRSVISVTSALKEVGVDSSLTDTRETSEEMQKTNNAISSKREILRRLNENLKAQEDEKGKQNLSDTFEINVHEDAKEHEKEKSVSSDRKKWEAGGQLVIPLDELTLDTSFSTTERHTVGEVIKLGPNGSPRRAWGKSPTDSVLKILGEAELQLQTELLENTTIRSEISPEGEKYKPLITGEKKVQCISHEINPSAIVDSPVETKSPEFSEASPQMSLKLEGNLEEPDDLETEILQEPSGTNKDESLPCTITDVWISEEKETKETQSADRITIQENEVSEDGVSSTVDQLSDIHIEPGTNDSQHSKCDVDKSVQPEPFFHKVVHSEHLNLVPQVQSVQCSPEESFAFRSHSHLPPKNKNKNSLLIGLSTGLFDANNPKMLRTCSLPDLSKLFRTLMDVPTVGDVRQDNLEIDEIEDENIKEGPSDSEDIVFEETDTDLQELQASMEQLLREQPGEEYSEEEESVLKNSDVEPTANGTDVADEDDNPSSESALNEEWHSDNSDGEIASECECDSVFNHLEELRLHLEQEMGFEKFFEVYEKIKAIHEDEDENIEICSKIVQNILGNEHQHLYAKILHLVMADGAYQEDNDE
observable: Kd

For reference, reported Kd for N#CCNC(=O)c1ccc(-c2ccnc(Nc3ccc(N4CCOCC4)cc3)n2)cc1 [MOMELOTINIB] stands at < 100 nM
